Reference source: ChEMBL document CHEMBL4011662

Some molecules, each annotated with its measured Intrinsic activity.
target: Probable G-protein coupled receptor 34 (Mus musculus) (UniProt Q9R1K6); test: Intrinsic activity at mouse GPR34 expressed in HEK293 cells co-transfected with AP-TGFalpha/chimeric […] assessed as induction of ectodomain shedding of membrane bound AP-TGFalpha after 1 hr relative to O-(Hydroxy(((2R,3R)-2-(((3-(2-((3-phenoxybenzyl)oxy)phenyl)- propanoyl)oxy)methyl)tetrahydro-2H-pyran-3-yl)oxy)phosphoryl)- L-serine; format: cell-based
Sequence (Q9R1K6 whole entry, the tested form may be a part): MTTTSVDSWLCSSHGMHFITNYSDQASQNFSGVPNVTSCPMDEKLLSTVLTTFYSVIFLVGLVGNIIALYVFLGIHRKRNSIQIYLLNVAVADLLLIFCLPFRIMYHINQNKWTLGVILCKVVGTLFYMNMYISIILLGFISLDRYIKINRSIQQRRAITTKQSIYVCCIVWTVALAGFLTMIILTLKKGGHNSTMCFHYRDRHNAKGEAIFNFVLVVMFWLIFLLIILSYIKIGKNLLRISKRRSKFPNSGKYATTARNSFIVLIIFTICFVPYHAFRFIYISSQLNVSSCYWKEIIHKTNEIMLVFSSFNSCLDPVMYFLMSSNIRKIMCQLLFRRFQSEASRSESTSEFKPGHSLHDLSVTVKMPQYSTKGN

Would you please look over these solved cases?
* N[C@@H](COP(=O)(O)OCCCOC(=O)CCc1ccccc1OCc1cccc(Oc2ccc(-c3ccc(-c4ccccc4)cc3)cc2)c1)C(=O)O | 4.3
* N[C@@H](COP(=O)(O)OCCCOC(=O)CCc1ccccc1OCc1cccc(Oc2ccc(Br)cc2)c1)C(=O)O | 0.97

Now take the following molecule into account.
Looking up N[C@@H](COP(=O)(O)OCCCOC(=O)CCc1ccccc1OCCCCCCOc1ccccc1)C(=O)O , I found its Intrinsic activity recorded as 0.071

---

Below, each entry is listed alongside its reported Emax.
biological target: Probable G-protein coupled receptor 34 (Mus musculus); assay: Agonist activity at mouse GPR34 expressed in HEK293 cells co-transfected with AP-TGFalpha/chimeric Galphaq/i1 assessed as induction of ectodomain shedding of membrane bound AP-TGFalpha after 1 hr relative to control; format: cell-based
The figure you give is taken to be in %; do not add the unit.

Reference set (5 entries):
- CC(C)(C)c1ccc(-c2ccc(Oc3cccc(COc4ccccc4CCC(=O)OCCCOP(=O)(O)OC[C@H](N)C(=O)O)c3)cc2)cc1: 16.5
- N[C@@H](COP(=O)(O)OCCCOC(=O)CCc1ccccc1OCc1cccc(Oc2ccc(-c3ccccc3)cc2)c1)C(=O)O: 17.8
- N[C@@H](COP(=O)(O)OCCCOC(=O)CCc1ccccc1OCc1cccc(Oc2ccc(F)cc2)c1)C(=O)O: 18.7
- N[C@@H](COP(=O)(O)OCCCOC(=O)CCc1ccccc1OCc1cccc(Oc2cccc(Cl)c2)c1)C(=O)O: 17.1
- N[C@@H](COP(=O)(O)OCCCOC(=O)CCc1ccccc1OCc1cccc(Oc2ccc(Cl)cc2)c1)C(=O)O: 17.8

Query N[C@@H](COP(=O)(O)OCCCOC(=O)CCc1ccccc1OCc1cccc(OC2CCCCC2)c1)C(=O)O yields Emax of 18.8

Note to self: Emax recorded for N[C@@H](COP(=O)(O)OCCCOC(=O)CCc1ccccc1OCc1cccc(Oc2ccc(I)cc2)c1)C(=O)O was 19.1

CCCCCCCC/C=C\CCCCCCCC(=O)OC[C@@H](O)COP(=O)(O)OC[C@H](N)C(=O)O has a reported Emax of 14

---

Listed next: entries and their corresponding EC50.
target: Probable G-protein coupled receptor 34 (Mus musculus, UniProt Q9R1K6); test: Agonist activity at mouse GPR34 expressed in HEK293 cells co-transfected with AP-TGFalpha/chimeric Galphaq/i1 assessed as induction of ectodomain shedding of membrane bound AP-TGFalpha after 1 hr
Sequence (Q9R1K6 whole entry, the tested form may be a part): as above
Response body: numeric value in µM, unit text excluded.

Use the examples below as a reference point.
* N[C@@H](COP(=O)(O)OCCCOC(=O)CCc1ccccc1OCc1cccc(Oc2ccc(-c3ccc(-c4ccccc4)cc3)cc2)c1)C(=O)O | 0.018
* N[C@@H](COP(=O)(O)OCCCOC(=O)CCc1ccccc1OCc1cccc(Cc2ccccc2)c1)C(=O)O | 1.3
* N[C@@H](COP(=O)(O)OCCCOC(=O)CCc1ccccc1OCc1cccc(Oc2ccc(F)cc2)c1)C(=O)O | 0.12
* N[C@@H](COP(=O)(O)OCCCOC(=O)CCc1ccccc1OCc1cccc(Oc2ccccc2)c1)C(=O)O | 0.22
* CC(C)(C)c1ccc(Oc2cccc(COc3ccccc3CCC(=O)OCCCOP(=O)(O)OC[C@H](N)C(=O)O)c2)cc1 | 0.9

Now for a further compound.
For Cc1ccccc1Oc1cccc(COc2ccccc2CCC(=O)OCCCOP(=O)(O)OC[C@H](N)C(=O)O)c1 the compound record lists EC50 as 0.65
